- Test system: A. baumannii isolate D-10.1-1
- protocol_text: Disk diffusion test (CLSI), antibiotic susceptibility profile; note: key: S: Susceptible to standard dosing regimen; I: Intermediate; R: Resistant
- Type: cell-based, Acinetobacter baumannii
- experimental_parameters: CLSI breakpoints
property_measured: Antibiotic susceptibility profile

• CC(C)(O/N=C(\C(=O)N[C@@H]1C(=O)N2C(C(=O)[O-])=C(C[n+]3ccccc3)CS[C@H]12)c1csc(N)n1)C(=O)O = R
• C[C@@H](O)[C@H]1C(=O)N2C(C(=O)O)=C(S[C@@H]3CN[C@H](C(=O)N(C)C)C3)[C@H](C)[C@H]12 = R
• C[C@H]1COc2c(N3CCN(C)CC3)c(F)cc3c(=O)c(C(=O)O)cn1c23 = I
• CC1(C)S[C@@H]2[C@H](NC(=O)[C@H](N)c3ccccc3)C(=O)N2[C@H]1C(=O)O = R

API: the following record is the query input.
CNC(C)C1CCC(N)C(OC2C(N)CC(N)C(OC3OCC(C)(O)C(NC)C3O)C2O)O1 (centres unmarked) on A. baumannii isolate D-10.1-1 gives Antibiotic susceptibility profile = R
